tested on: S. aureus; assay: Minimum inhibitory concentrations (MICs) for S. aureus of exemplary compounds (Table 2); format: cell-based; settings: Staphylococcus aureus, minimum inhibitory concentrations for S. aureus; read-out: MICs
assay metric: MIC (µg/mL)

INSERT INTO assay_data (compound, unit_tag, obs_value) VALUES
  ('CC(=O)NC[C@H]1CN(c2ccc(-c3ccc(S(=O)(=O)Cc4cc[n+]([O-])cc4)cc3)c(F)c2)C(=O)O1', 'µg/mL', 4),
  ('CC(=O)NC[C@H]1CN(c2ccc(-c3ccc(CNCc4cnc5ccccc5c4)cc3)c(F)c2)C(=O)O1', 'µg/mL', 0.25),
  ('O=C1O[C@@H](Cn2ccnn2)CN1c1ccc(-c2ccc(CNCCSc3cnn[nH]3)cc2)c(F)c1', 'µg/mL', 0.25),
  ('CC(=O)NC[C@H]1CN(c2ccc(-c3ccc(CNCc4ccc[nH]4)cc3)c(F)c2)C(=O)O1', 'µg/mL', 2),
  ('CC(=O)NC[C@H]1CN(c2ccc(-c3ccc(C(=O)NCc4ccccn4)c(F)c3)c(F)c2)C(=O)O1', 'µg/mL', 1),
  ('CC(=O)NC[C@H]1CN(c2ccc(-c3ccc(Cn4cnnn4)cc3)c(F)c2)C(=O)O1', 'µg/mL', 0.25),
  ('CC(=O)NC[C@H]1CN(c2ccc(-c3ccc(C(C)NCc4ccncc4)cc3)c(F)c2)C(=O)O1 (mixture of isomers)', 'µg/mL', 8);

These data points were gathered from patent US10471046B2.
